# Target or system: Paired box protein Pax-8 (Homo sapiens, UniProt Q06710)
# Sequence (Q06710 whole entry): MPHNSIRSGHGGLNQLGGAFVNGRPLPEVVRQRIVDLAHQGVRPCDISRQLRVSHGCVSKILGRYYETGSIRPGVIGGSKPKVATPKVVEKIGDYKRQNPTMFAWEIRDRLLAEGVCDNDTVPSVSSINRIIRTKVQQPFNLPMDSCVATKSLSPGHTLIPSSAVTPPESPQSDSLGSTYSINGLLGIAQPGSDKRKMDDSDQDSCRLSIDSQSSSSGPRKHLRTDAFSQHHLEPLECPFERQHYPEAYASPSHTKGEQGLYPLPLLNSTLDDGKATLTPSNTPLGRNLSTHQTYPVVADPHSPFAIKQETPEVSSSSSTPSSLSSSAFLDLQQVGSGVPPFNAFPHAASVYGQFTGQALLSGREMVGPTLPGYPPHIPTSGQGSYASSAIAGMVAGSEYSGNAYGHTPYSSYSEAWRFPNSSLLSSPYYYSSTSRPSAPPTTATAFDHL
# Protocol details: inhibitors of PAX8-driven TPO luciferase reporter, dose response, RMG-I cells, cherry-pick (AID 687027);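 further: luciferase reporter driven by Pax8 target thyroperoxidase promoter measured by SteadyGlo luminescence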
# Type: functional, cell-based
Structures can show the parent of a compound that is named as a salt. Calls of active or inactive are those of the source.
Item-by-item account of AC50

Consider the worked cases shown below.
{"columns": ["Molecule", "Experimental result"],
 "data": [
  ["COc1ccccc1C#Cc1ccc([C@H]2[C@H](C#N)N(C(=O)C3CCCC3)[C@H]2CO)cc1", "4.38 µM (active)"],
  ["C[C@@H]1CN([C@@H](C)CO)C(=O)c2c(c3ccccc3n2C)-c2ccccc2CO[C@@H]1CN(C)S(=O)(=O)c1ccc(C(F)(F)F)cc1", "6.8 µM (active)"]
]}

Please give measured AC50 of the following entry: COc1ccc(NC(=O)Nc2ccc3c(c2)C(=O)N([C@@H](C)CO)C[C@@H](C)[C@H](CN(C)Cc2ccc(C(F)(F)F)cc2)O3)cc1
22 µM (active)

Please give measured AC50 of the following entry: Cc1ccc(S(=O)(=O)Nc2ccc3c(c2)C(=O)N([C@@H](C)CO)C[C@@H](C)[C@@H](CN(C)Cc2ccc(Cl)c(Cl)c2)OCCCC[C@@H](C)O3)cc1
9.18 µM (active)

Please give measured AC50 of the following entry: Cc1ccc(C)c(N2CCN(C(=O)CCCCCn3c(=S)[nH]c4ccc(N5CCOCC5)cc4c3=O)CC2)c1
5.97 µM (active)

Please give measured AC50 of the following entry: CCCCCNC(=N)N/N=C/c1c[nH]c2ccc(OC)cc12 [TEGASEROD MALEATE]
12.4 µM (active)

Please give measured AC50 of the following entry: COc1ccc(S(=O)(=O)N2CCCCN3[C@H](CO)[C@@H](c4ccc(C#CC(C)C)cc4)[C@H]3C2)cc1
12 µM (active)

Please give measured AC50 of the following entry: O=C(NC1=C(NC2CCS(=O)(=O)C2)C(=O)c2ccccc2C1=O)c1ccccc1 (centres undefined)
6.4 µM (active)

Please give measured AC50 of the following entry: Cc1ccc2nc(NNC(=O)c3ccc(S(=O)(=O)N4CCc5ccccc5C4)cc3)sc2c1
3.01 µM (active)

====

# Target or system: Corticotropin-releasing factor receptor 2/Corticotropin-releasing factor-binding protein (Homo sapiens, UniProt P24387+Q13324)
# Sequence (Q13324 whole entry): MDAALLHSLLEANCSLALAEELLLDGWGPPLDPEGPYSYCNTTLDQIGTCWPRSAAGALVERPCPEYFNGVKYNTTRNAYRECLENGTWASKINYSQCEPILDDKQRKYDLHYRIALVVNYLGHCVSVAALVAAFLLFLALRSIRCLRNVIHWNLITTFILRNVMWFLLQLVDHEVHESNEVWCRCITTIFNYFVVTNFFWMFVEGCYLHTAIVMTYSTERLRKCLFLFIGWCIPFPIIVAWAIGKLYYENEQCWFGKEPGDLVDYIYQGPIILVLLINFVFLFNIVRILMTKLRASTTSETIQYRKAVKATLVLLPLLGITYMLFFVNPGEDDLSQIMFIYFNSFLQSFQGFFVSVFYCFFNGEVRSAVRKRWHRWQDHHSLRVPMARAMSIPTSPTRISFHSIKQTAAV
# Sequence (P24387 whole entry): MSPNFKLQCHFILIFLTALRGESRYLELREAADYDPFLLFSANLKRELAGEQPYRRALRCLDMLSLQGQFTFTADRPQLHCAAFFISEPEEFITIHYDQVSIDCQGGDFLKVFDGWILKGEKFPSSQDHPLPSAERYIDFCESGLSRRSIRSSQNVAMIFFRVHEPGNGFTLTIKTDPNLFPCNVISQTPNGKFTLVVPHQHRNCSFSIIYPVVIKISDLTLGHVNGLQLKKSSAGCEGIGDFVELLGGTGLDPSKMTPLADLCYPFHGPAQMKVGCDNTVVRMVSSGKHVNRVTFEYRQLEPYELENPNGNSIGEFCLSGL
# Protocol details: activators of CRF receptor 2 with binding protein – uHTS hits, confirmation (AID 602473)
# Assay type: functional
# Measurement setup: read-out: EC50_Mean
Active and inactive are the calls of the source.
Outcomes you can answer with include only these: YES (active), NO (inactive)

Example cases with answers are listed next.
{"columns": ["Compound", "Assigned label"],
 "data": [
  ["COC(=O)c1cn(NC(=O)c2ccc(F)cc2)c(=O)c2ccccc12", "NO"],
  ["Cc1cc(C)cc(Nc2c(F)c(F)c(F)c(F)c2C(=O)O)c1", "NO"],
  ["Cc1cc(NC(=O)CN2C(=O)NC(C)(c3ccc(OC(F)F)cc3)C2=O)no1 (configuration not stated)", "YES"],
  ["CCc1cccc(CC)c1N1C(=O)C2=C(SCCCS2)C1=O", "YES"],
  ["COc1ccc(-c2nn(-c3ccccc3C)cc2CNCc2cccnc2)cc1F", "NO"]
]}

Answer briefly: the call reported for CCOc1ccc(NC(=O)[C@@H](NC(=O)c2ccccc2)[C@@H](C)CC)cc1 in this assay.
NO

Answer briefly: the call reported for Cc1cccc(C)c1OCC(O)Cn1nnc2ccccc21 (configuration not stated) in this assay.
NO
